tgt: UniProtKB P42336
Sequence (P42336 whole entry): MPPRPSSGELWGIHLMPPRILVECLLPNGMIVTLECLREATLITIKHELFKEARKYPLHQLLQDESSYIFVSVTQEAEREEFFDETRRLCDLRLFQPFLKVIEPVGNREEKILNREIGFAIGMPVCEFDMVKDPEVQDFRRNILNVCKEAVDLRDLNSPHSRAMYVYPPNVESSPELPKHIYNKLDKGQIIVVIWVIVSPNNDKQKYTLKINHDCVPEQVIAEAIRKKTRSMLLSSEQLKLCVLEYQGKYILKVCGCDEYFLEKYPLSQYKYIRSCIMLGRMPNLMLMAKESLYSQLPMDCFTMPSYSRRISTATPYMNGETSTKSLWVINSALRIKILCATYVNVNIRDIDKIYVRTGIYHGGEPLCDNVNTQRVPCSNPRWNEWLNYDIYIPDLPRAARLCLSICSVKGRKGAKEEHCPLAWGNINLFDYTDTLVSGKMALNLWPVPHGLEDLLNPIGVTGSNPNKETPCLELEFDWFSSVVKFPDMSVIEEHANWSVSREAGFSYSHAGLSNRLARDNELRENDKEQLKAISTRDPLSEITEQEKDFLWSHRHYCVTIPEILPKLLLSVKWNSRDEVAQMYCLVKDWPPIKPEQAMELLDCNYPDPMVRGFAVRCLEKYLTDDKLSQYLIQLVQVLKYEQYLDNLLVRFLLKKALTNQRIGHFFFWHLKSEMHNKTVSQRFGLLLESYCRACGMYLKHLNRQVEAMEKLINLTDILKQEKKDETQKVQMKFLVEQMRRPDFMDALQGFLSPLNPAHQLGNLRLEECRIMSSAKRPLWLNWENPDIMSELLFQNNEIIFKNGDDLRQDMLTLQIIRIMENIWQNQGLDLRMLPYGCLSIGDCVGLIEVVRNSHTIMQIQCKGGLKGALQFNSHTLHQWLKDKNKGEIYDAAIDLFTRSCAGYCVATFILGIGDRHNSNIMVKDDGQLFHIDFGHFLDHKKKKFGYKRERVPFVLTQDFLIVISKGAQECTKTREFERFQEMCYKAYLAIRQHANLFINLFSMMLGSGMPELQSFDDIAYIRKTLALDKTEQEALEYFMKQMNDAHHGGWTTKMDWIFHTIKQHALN
assay-remarks: Kinase Glo Luminescent Kinase Assay (Kglo), assay A
Type: biochemical
measurement-context: read-out: Assay A PI3Kα IC50
reported-endpoint: pIC50
Numbers only, as −log10 of the molar value.

Solved entries:
molecule | endpoint-result
Cc1ccc(S(=O)(=O)N[C@H]2CC[C@](C)(O)CC2)cc1-c1cnc(N)c(-n2cncn2)n1 [Example 69a] | 6.41
Cc1cc(-c2nc(-c3cc(S(=O)(=O)NCC4CCN(C)C4)ccc3C)cnc2N)ccn1 (centres unmarked) [Example 129.30] | 5.27
Cc1ncc(-c2nc(-c3cc(S(=O)(=O)NCC(C)(C)O)ccc3C)cnc2N)o1 [Example 126] | 6.55
Cc1cc(-c2nc(-c3cc(S(=O)(=O)NC[C@@H]4CCNC4)ccc3C)cnc2N)ccn1 [Example 129.35] | 5.68
Cc1ccc(S(=O)(=O)NCCC(F)(F)F)cc1-c1cnc(N)c(-n2cncn2)n1 [Example 127.31] | 6.72
Cc1ccc(S(=O)(=O)NCCC(C)(O)C(F)(F)F)cc1-c1cnc(N)c(-n2cncn2)n1 (centres unmarked) [Example 127.24] | 6.70

Turning to the following molecule.
Record Cc1cc(-c2nc(-c3cc(S(=O)(=O)NC4CC(F)(F)C4)ccc3C)cnc2N)ccn1 [Example 129.2] : what is its pIC50 with UniProtKB P42336?
6.55

* * *

tgt: UniProt P42338
Sequence (P42338 whole entry): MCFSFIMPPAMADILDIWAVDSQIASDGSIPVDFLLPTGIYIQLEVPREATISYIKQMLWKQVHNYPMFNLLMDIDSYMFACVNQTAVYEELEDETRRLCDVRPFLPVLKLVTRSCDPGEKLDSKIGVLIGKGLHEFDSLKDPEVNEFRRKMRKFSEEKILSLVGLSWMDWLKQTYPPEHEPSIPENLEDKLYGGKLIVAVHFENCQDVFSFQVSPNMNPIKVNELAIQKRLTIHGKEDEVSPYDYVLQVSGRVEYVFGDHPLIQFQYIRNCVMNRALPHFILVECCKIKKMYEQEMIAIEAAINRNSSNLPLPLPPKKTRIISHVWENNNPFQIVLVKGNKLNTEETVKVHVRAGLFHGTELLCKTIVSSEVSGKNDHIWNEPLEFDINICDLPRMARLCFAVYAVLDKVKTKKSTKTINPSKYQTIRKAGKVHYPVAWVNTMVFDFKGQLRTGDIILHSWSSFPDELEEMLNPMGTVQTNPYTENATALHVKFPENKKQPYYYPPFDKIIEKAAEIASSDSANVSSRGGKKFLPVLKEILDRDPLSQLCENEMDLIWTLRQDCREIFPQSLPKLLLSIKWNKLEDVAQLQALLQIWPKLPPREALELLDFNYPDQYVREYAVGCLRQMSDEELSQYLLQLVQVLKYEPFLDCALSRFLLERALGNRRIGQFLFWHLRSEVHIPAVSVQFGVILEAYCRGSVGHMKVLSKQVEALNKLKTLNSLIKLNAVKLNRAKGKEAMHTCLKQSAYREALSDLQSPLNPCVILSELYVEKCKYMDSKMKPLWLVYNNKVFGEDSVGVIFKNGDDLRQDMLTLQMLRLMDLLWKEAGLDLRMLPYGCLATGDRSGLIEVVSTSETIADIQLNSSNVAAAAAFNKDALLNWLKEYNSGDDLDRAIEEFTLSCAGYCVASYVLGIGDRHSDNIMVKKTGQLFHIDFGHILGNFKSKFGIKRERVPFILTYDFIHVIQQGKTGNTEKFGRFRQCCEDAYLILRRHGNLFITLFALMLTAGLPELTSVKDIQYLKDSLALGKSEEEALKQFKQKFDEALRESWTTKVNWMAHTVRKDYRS
Sequence (Q63787 whole entry partner): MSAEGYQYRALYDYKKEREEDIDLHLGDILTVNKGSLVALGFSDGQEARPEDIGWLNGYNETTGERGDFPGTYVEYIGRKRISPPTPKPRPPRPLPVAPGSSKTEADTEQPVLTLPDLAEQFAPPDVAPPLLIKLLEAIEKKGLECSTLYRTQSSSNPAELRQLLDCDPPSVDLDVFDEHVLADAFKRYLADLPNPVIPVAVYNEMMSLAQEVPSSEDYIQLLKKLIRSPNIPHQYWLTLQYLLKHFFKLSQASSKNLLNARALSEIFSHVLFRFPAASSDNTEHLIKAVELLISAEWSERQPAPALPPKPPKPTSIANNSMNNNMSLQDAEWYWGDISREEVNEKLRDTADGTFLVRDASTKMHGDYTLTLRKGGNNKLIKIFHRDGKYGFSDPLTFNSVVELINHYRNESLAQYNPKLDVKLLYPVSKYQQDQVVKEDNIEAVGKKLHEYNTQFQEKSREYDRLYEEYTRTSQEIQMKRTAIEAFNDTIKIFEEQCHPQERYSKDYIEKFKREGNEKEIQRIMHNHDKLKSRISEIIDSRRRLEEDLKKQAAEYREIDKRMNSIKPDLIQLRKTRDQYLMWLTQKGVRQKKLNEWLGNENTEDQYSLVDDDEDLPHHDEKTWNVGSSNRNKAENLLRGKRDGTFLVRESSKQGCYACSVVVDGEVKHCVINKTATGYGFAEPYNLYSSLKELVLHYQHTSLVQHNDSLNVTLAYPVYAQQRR
assay-remarks: Cellular assay I1, p-Akt (S473) in Rat-1 cells, Surefire format
Format: cell-based
measurement-context: non-asterisked data: version I1 (Surefire format), Rat-1 cells; read-out: Assay I PI3Kβ IC50
reported-endpoint: pIC50
One number for each entry, as −log10 of the molar value.

compound | pIC50
Cc1ccc(S(=O)(=O)NCCC(C)(C)O)cc1-c1cnc(N)c(-c2csc(CN3CCOCC3)c2)n1 [Example 30] | 5.78

Requested read-out: pIC50. Entry: Cc1ccc(S(=O)(=O)N[C@H]2CC[C@H](O)CC2)cc1-c1cnc(N)c(-n2cncn2)n1 [Example 15]
5.70

* * *

tgt: PI 3-kinase delta (Homo sapiens)
Sequence (O00329 whole entry): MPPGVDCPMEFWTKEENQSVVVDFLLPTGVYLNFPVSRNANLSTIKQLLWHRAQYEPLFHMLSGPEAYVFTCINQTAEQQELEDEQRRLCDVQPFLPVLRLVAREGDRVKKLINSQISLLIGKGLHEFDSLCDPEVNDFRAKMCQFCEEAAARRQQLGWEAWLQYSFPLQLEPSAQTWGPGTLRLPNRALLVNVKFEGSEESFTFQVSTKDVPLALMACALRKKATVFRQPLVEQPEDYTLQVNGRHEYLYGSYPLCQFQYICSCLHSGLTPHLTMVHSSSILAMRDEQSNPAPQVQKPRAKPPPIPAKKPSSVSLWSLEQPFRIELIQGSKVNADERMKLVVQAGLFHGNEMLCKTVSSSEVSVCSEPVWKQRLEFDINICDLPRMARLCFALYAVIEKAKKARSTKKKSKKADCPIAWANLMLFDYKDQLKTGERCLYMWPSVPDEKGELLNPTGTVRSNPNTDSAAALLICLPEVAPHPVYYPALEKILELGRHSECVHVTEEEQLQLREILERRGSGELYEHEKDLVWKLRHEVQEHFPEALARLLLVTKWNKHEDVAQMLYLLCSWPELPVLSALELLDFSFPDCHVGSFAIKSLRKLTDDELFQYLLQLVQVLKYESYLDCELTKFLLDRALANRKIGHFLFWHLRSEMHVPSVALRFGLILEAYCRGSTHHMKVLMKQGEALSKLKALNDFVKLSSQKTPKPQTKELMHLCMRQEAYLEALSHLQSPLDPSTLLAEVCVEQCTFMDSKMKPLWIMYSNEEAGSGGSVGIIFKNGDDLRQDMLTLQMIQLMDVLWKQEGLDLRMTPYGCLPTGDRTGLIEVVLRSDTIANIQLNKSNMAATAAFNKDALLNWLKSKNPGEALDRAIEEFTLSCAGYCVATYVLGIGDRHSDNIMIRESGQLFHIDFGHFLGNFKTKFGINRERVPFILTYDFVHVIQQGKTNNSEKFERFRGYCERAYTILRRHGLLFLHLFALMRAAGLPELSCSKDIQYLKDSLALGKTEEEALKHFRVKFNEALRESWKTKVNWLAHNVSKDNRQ
Sequence (P27986 461-568 partner): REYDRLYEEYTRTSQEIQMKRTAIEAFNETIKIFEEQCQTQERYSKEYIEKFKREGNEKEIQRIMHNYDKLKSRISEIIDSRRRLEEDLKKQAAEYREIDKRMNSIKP
assay-remarks: TR-FRET Adapta assay, assay F
measurement-context: read-out: Assay F PI3Kδ IC50
reported-endpoint: pIC50
One number for each entry, as −log10 of the molar value.

compound | pIC50
Cc1cc(Cl)c(S(=O)(=O)NCC(C)(C)O)cc1-c1cnc(N)c(-n2cncn2)n1 | 6.80
Cc1ccc(S(=O)(=O)NCCC(C)(C)O)cc1-c1cnc(N)c(-c2cc(C(F)(F)F)nn2C)n1 | 6.15
Cc1ccc(S(=O)(=O)N2CCC(F)(F)CC2)cc1-c1cnc(N)c(-n2cncn2)n1 | 5.06

Value sought for every listed compound: pIC50.
1. Cc1ccc(S(=O)(=O)NC[C@H]2C[C@@H](O)C2)cc1-c1cnc(N)c(-c2cc(C3CC3)no2)n1
2. Cc1ccc(S(=O)(=O)NCC(C)(C)O)cc1-c1cnc(N)c(-c2ccoc2)n1
3. Cc1ccc(S(=O)(=O)NCCC(C)(C)O)cc1-c1cnc(N)c(-c2cnn(Cc3ccccn3)c2)n1
4. Cc1cc(-c2nc(-c3cc(S(=O)(=O)NCC4CCCOC4)ccc3C)cnc2N)ccn1 (stereo not shown)
5. Cc1ccc(S(=O)(=O)N[C@H]2CC[C@H](O)CC2)cc1-c1cnc(N)c(-c2nc(C(C)C)no2)n1
6. COCCCNS(=O)(=O)c1ccc(C)c(-c2cnc(N)c(-c3ccnc(C)c3)n2)c1
7. Cc1noc(-c2nc(-c3cc(S(=O)(=O)NCCC(C)(C)O)ccc3C)cnc2N)n1
8. Cc1nc(C)n(-c2nc(-c3cc(S(=O)(=O)NCC(C)(C)O)ccc3C)cnc2N)n1

[6.17, 5.97, 7.40, 6.32, 7.05, 6.10, 6.85, 5.77]
